- Tested on: TAB165
- TEST_PROTOCOL: qHTS profiling for inhibitors of Plasmodium falciparum proliferation (AID 504749); also: nearly all actives have a fitted effect of over 60% in size
- CONDITION_SET: P. falciparum in erythrocytes, SYBR Green DNA, 72 h; series mostly up to 28.7 µM
Inconclusive results are not listed. The source made the active and inactive calls. Calls follow the shape of the dose curve; as a rule, active = well fitted inhibition curve with a large enough effect; inconclusive = small, poorly fitted or top-dose-only effect; inactive = flat fitted curve, though single readings scatter.
Entry note: the call must match one of active, inactive

Q: What outcome does the record of this test show for "NC(=O)c1cccnc1" ?
Ans: inactive

Q: What outcome does the record of this test show for "COc1cc(NCc2ccc3nc(N)nc(N)c3c2C)cc(OC)c1OC" ?
Ans: active

Q: What outcome does the record of this test show for "CCCN[C@H]1CCc2nc(N)sc2C1" ?
Ans: inactive

* * *

- TEST_PROTOCOL: Quantitative High-Throughput drug screen in 47 multiple myeloma cell lines against the NCATS MIPE library collection: KMS34_JCRB cell viability assay (AID 1918985); also: nearly all actives have a fitted effect of over 40% in size; also: potency is read from the fitted curve at half-maximal effect
- CONDITION_SET: KMS34 myeloma viability, CellTiter-Glo ATP luminescence, 48 h; series mostly up to 45.8 µM
- From the text: PI: Beverly A. Mock Ph.D. Laboratory of Cancer Biology and Genetics, Center for Cancer Research, National Cancer Institute, National Institute of Health, Bethesda, Maryland […] 5; Detector; 425V; Luminescence; Viewlux PerkinElmer. […] 1. […] Briefly, the corresponding myeloma cell lines were screened in 1,536-well plates with 500 cells, 5-uL per well for inhibition of cell viability (assessed by measuring ATP levels with CellTiterGlo). […]
Results filed as inconclusive are left out. The source made the active and inactive calls. Calls follow the shape of the dose curve; as a rule, active = well fitted cell-killing curve with a large enough effect; inconclusive = small, poorly fitted or top-dose-only effect, or effect the other way; inactive = no such curve, though single readings can be large or run the other way.
READOUT: Potency

COMPOUND | READOUT | RECORDED_RESULT
COc1ncnc(NS(=O)(=O)c2ccc(N)cc2)c1OC | Potency | inactive
Nc1nc(=S)c2[nH]cnc2[nH]1 | Potency | 2.96 µM (active)
COC(=O)Nc1nc2ccc(S(=O)c3ccccc3)cc2[nH]1 (configuration not stated) | Potency | 23.5 µM (active)
CC(C)(C#N)c1cc(Cn2cncn2)cc(C(C)(C)C#N)c1 | Potency | inactive
CNS(=O)(=O)Cc1ccc2[nH]cc(CCN(C)C)c2c1 | Potency | inactive
NS(=O)(=O)c1cc2c(cc1Cl)NC(C(Cl)Cl)NS2(=O)=O (configuration not stated) | Potency | inactive

Q: Given "NC(=O)c1cccc(N)c1" , respond with its Potency.
Ans: inactive

* * *

- Test system: CP238
- TEST_PROTOCOL: qHTS profiling for inhibitors of Plasmodium falciparum proliferation (AID 504749); also: nearly all actives have a fitted effect of over 60% in size
- CONDITION_SET: P. falciparum in erythrocytes, SYBR Green DNA, 72 h; series mostly up to 28.7 µM
Inconclusive results are not listed. The source made the active and inactive calls. Calls come from the whole dose curve; as a rule, active = well fitted inhibition curve with a large enough effect; inconclusive = small, poorly fitted or top-dose-only effect; inactive = flat fitted curve, though single readings scatter.
Entry note: the call must match one of active, inactive

COMPOUND | LABEL
CC(C)OC(=O)C(C(=O)OC(C)C)=C1SC=CS1 | inactive
COc1ncnc(NS(=O)(=O)c2ccc(N)cc2)c1OC | inactive

Now let's try a different one.
Q: What outcome does the record of this test show for "COc1cc(NCc2ccc3nc(N)nc(N)c3c2C)cc(OC)c1OC" ?
Ans: active

* * *

- TEST_PROTOCOL: qHTS Screen of the MIPE 4.0 Collection Against Ewings Sarcoma (TC71) (AID 1259253); also: nearly all actives have a fitted effect of over 40% in size; also: potency is read from the fitted curve at half-maximal effect
- CONDITION_SET: TC71 Ewing sarcoma viability, CellTiter-Glo, 48 h; series mostly up to 45.8 µM
Inconclusive results are not listed. Active and inactive are the calls of the source. Calls come from the whole dose curve; as a rule, active = well fitted inhibition curve with a large enough effect; inconclusive = small, poorly fitted or top-dose-only effect; inactive = no such curve, though single readings can be large or run the other way.
READOUT: Potency

MOLECULE | RECORDED_RESULT
Cc1nnc(C(=O)NC(C)(C)c2nc(C(=O)NCc3ccc(F)cc3)c(O)c(=O)n2C)o1 | inactive
O=C(O)c1ccc(-n2nc(-c3ccccc3O)nc2-c2ccccc2O)cc1 | 14.8 µM (active)
Cc1cc(NS(=O)(=O)c2ccc(N)cc2)no1 | inactive
CCCc1cc(C(N)=S)ccn1 | inactive
CCC(C)(C)c1ccc(CC(C)CN2C[C@@H](C)O[C@@H](C)C2)cc1 (some centres undefined) | inactive

Q: Given "CC[C@H](C)C(=O)O[C@H]1C[C@@H](C)C=C2C=C[C@H](C)[C@H](CC[C@@H]3C[C@@H](O)CC(=O)O3)[C@H]21" , respond with its Potency.
Ans: 14.8 µM (active)

Q: Given "CS(=O)(=O)c1ccc([C@@H](O)[C@@H](CO)NC(=O)C(Cl)Cl)cc1" , respond with its Potency.
Ans: 16.6 µM (active)

Q: Given "NCCCC(O)(P(=O)(O)O)P(=O)(O)O" , respond with its Potency.
Ans: inactive

Q: Given COc1ccccc1OCC(O)COC(N)=O (centres undefined) , respond with its Potency.
Ans: inactive

Q: Given "Oc1c(Cl)cc(Cl)c2cccnc12" , respond with its Potency.
Ans: 10.5 µM (active)

Q: Given "CC(=O)Oc1ccccc1C(=O)Nc1ncc([N+](=O)[O-])s1" , respond with its Potency.
Ans: 19.1 µM (active)

Q: Given "CNC(=O)c1cc(Oc2ccc(NC(=O)Nc3ccc(Cl)c(C(F)(F)F)c3)cc2)ccn1" , respond with its Potency.
Ans: 2.35 µM (active)

Q: Given COc1c(N2CCNC(C)C2)c(F)cc2c(=O)c(C(=O)O)cn(C3CC3)c12 (centres undefined) , respond with its Potency.
Ans: inactive

Q: Given Cc1oc(=O)oc1CN1CCN(c2cc3c(cc2F)c(=O)c(C(=O)O)c2n3C(C)S2)CC1 (centres undefined) , respond with its Potency.
Ans: inactive

Q: Given NS(=O)(=O)c1cc2c(cc1Cl)NC(C(Cl)Cl)NS2(=O)=O (centres undefined) , respond with its Potency.
Ans: inactive

Q: Given "CNCC[C@H](Oc1cccc2ccccc12)c1cccs1" , respond with its Potency.
Ans: 2.64 µM (active)

Q: Given "Clc1ccccc1CN1CCc2sccc2C1" , respond with its Potency.
Ans: inactive

Q: Given "CC1=CC(=O)c2ccccc2C1=O" , respond with its Potency.
Ans: 26.4 µM (active)

Q: Given "CCCCCCNC(=O)n1cc(F)c(=O)[nH]c1=O" , respond with its Potency.
Ans: 8.33 µM (active)

Origin of the recorded values: PubChem BioAssay (NCATS)
